Attribution: ChEMBL document CHEMBL1201862

System: NCI/ADR-RES
Test: NCI tumour cell line growth inhibition, 48 h
Calls of active or inactive are those of the source. No stated cut-off is given here; in the data, active = GI50 up to about 1.1 µM and inactive = higher.
readout-label: GI50

The cases that follow already have their GI50 on record.
compound	GI50
C(=C\c1ccc(-c2cn3cc(/C=C/C=N/NC4=NCCN4)ccc3n2)cc1)/C=N/NC1=NCCN1	> 25.8 µM (inactive)
COc1ccc(/C=C2\N=C(SC)N(CN3CCCCC3)C2=O)cc1	> 100 µM (inactive)
C=C1C(C)C2C(Cc3ccccc3)NC(=O)C23C(OC(C)=O)C=CC(C)(O)C(=O)C(C)C/C=C/C3C1O (stereo not given)	> 65.9 µM (inactive)
O=C(NCCN1CCCCC1)c1ccc(I)cc1	> 100 µM (inactive)
COC(=O)c1ccc2c(c1)sc1nc(-c3ccc(OC)cc3)cn12	> 100 µM (inactive)

Asked: Can you look up the measured GI50 of COC(=O)C1OC(O[C@H]2CC[C@]3(C)[C@H]4CC=C5[C@@H]6CC(C)(C)CC[C@]6(C(=O)OC6OCC(O)C(O)C6OC6OC(C)C(OC7OCC(OC8OCC(O)C(O)C8O)C(O)C7O)C(O)C6O)[C@H](O)C[C@@]5(C)[C@]4(C)CC[C@H]3C2(C)C)C(O)C(O)C1O (stereo not given in full) for me?
Given back: 6.41 µM (inactive)

Asked: Quick check: GI50 of "N/N=C(/C=C1\C(=O)Nc2ccccc21)c1ccccc1" ?
Given back: 18.2 µM (inactive)

Asked: Value lookup for GI50; key = CSc1nc2c(c(N3CCOCC3)n1)C(O)n1c(nc3ccccc31)S2 (stereo not given)
Given back: 22.6 µM (inactive)

Asked: Query (compound): "CCN(CC)c1ccc(NC(=S)NN(C)C)cc1" ; field requested: GI50
Given back: > 10 µM (inactive)

Asked: So what does the record say about GI50 for CC1=NN=C(N)NC1=CC(Sc1ccc(Cl)cc1)c1c(O)ccc2ccccc12 (stereo not given) ?
Given back: 20.2 µM (inactive)

Asked: Any idea what its GI50 is? The compound is "N=C(N)NS(=O)(=O)c1ccc(NNC(=O)c2cccc3c(O)c4ccccc4nc23)cc1"
Given back: 38.3 µM (inactive)

Asked: # GI50 lookup, item "CCCCCCCCCCCCCC/C(C(=O)O)=C(\C)C(=O)O"
Given back: 97.7 µM (inactive)

---

System: DLD-1
Assay: NCI tumour cell line growth inhibition, 48 h
Activity calls are given as the source filed them. No stated cut-off is given here; in the data, active = GI50 up to about 1.1 µM and inactive = higher.
List of GI50 values.

> print(dat)
                                   compound        readout.value
1  CC(C)(C)C1CCC(=O)C(C(O)CC2CC(=O)N(c3ccccc3)C(=O)C2)C1 (stereo not drawn)  > 100 µM (inactive)
2  Cc1cc(C=O)c2c(=O)c3c(O)ccc(/C=C/C(C)C)c3oc2c1   70.1 µM (inactive)
3    N#C/C(=C(/S)Nc1ccccc1)c1nc2ccccc2[nH]1   > 10 µM (inactive)
4        CCOc1ccc(/C=C(\Cl)c2ccc(OC)cc2)cc1  > 100 µM (inactive)
5  NC(=O)CCC(NCc1c2ccccc2[n+]([O-])c2ccccc12)C(=O)O (stereo not drawn)   46.9 µM (inactive)
6  COc1cc(Br)c(CC2=NCCc3cc(OC)c(OC)cc32)cc1OC   45.4 µM (inactive)
7  O=C(Nc1ccc(C(F)(F)F)cc1[N+](=O)[O-])C(=O)C(C(=O)c1ccc2ccccc2c1)C1OC(=O)c2ccccc21 (stereo not drawn)    6.9 µM (inactive)

For the next question, use this compound.
Asked: Reported GI50 for "COC(=O)Cc1c([C@@]2(C)CCCC(C)(C)C2)ccc2c1C(=O)OC2" : what is it?
Given back: 3.62 µM (inactive)

---

System: HCC 2998
Assay: NCI tumour cell line growth inhibition, 48 h
Calls of active or inactive are those of the source. Cut-off read from the data, not from the text of the source: active = GI50 up to about 1.1 µM and inactive = higher.
One label from this list, please: active, inactive

# count of solved cases: 5
compound	cat
CCC(C)C(N)C(=O)NC(CC(N)=O)C(=O)NC(CC(C)C)C(=O)NC(CCCCN)C(=O)NC(C)C(=O)NC(CC(C)C)C(=O)NC(C)C(=O)NC(C)C(=O)NC(CC(C)C)C(=O)NC(C)C(=O)NC(CCCCN)C(=O)NC(CCCCN)C(=O)NC(C(=O)NC(CC(C)C)C(N)=O)C(C)CC (centres undefined)	inactive
c1cc(-c2sc(-c3ccncc3)c(-c3ccncc3)c2-c2ccncc2)ccn1	inactive
CCCC(OCC)(OCC)OCC	inactive
N=C(N)NS(=O)(=O)c1ccc(NNC(=O)c2cccc3c(O)c4ccccc4nc23)cc1	inactive
CN(C)N1C(=C(C#N)C#N)C(c2ccccc2)CC1C#N (centres undefined)	inactive

Asked: Entry "Cc1ccccc1C(=O)Oc1ccc(O)cc1" : call = ?
Given back: inactive

---

Each entry below lists one item and its recorded GI50 value.
Tested on: M14
Assay: NCI tumour cell line growth inhibition, 48 h
Activity calls are given as the source filed them. Cut-off read from the data, not from the text of the source: active = GI50 up to about 1.1 µM and inactive = higher. Where a SMILES comes first, the peptide text is derived from it. [ ]: non-standard residue; d: D form. The star is where a group is joined. Hyp = O=C(O)[CH]1C[CH](O)CN1; Cbz = O=C(OCc1ccccc1)*

molecule	GI50
Cc1c(O)c(OC2OC(CO)C(O)C(O)C2O)cc2c1CC[C@@H]1C2(C)C(=O)C[C@]2(C)[C@@H]([C@@](C)(O)C(O)CCC(C)(C)O)[C@H](O)C[C@@]12C (some centres not stated)	> 100 µM (inactive)
CCC(C)C(N)C(=O)NC(CC(N)=O)C(=O)NC(CC(C)C)C(=O)NC(CCCCN)C(=O)NC(C)C(=O)NC(CC(C)C)C(=O)NC(C)C(=O)NC(C)C(=O)NC(CC(C)C)C(=O)NC(C)C(=O)NC(CCCCN)C(=O)NC(CCCCN)C(=O)NC(C(=O)NC(CC(C)C)C(N)=O)C(C)CC (configuration not stated)	2.48 µM (inactive)
COc1cc(/C=C\c2nnc(/C=C\c3ccc(O)c(OC)c3)s2)ccc1O	2.11 µM (inactive)
Cc1c(/C=N/NC(=S)N2CCCCC2)c(=O)n(-c2ccccc2)n1C	61.9 µM (inactive)
Cc1ccccc1NC(=N)Nc1ccccc1C	66.8 µM (inactive)
C=CCOc1cc2c(cc1C(C)c1ccc(OC)cc1)OCO2 (configuration not stated)	0.67 µM (active)

Asked: Returns the measured GI50 for the input molecule. Input: CCCCCCCC(CC(=O)NC(CO)C(=O)NC(CO)CC(C)C)OC(=O)CC(CCCCCCC)OC(=O)CC(CCCCCCC)OC1OC(C)C(O)C(OC2OC(C)C(O)C(O)C2O)C1O (configuration not stated)
Given back: 5.05 µM (inactive)

Asked: # get_value(readout='GI50', item= "O=C1NC(=S)NC(=O)C1C(c1ccc([N+](=O)[O-])cc1)C1C(=O)NC(=S)NC1=O.c1ccncc1" )
Given back: > 100 µM (inactive)

Asked: Tell me the measured GI50 of "CC(C)C(=O)/C=C/c1ccc(Cl)cc1" , please.
Given back: 17.1 µM (inactive)

Asked: Query: GI50; subject: "CCOC(=O)c1sc2nc(SC)nc3c2c1NCN3c1ccc(F)c(F)c1"
Given back: 31.4 µM (inactive)

Asked: Query (molecule): "O=C(c1cccs1)N(C(=S)N1CCN(c2ccccn2)CC1)C1CCCCC1" ; field requested: GI50
Given back: 76.4 µM (inactive)

Asked: So what does the record say about GI50 for "COC(=O)[C@@H]1C[C@H]2OC(=O)CC[C@]2(C)O[C@H]1[C@H]1O[C@@](C)(O)CCC[C@H]1C" ?
Given back: > 50 µM (inactive)

Asked: I am curious: what GI50 value has been reported for CC1(c2ccccc2)CCN(C2CC2)CO1 (configuration not stated) ?
Given back: 16.9 µM (inactive)

Asked: Any idea what GI50 was measured for NC(=O)CNC(=O)C1CC(O)CN1C(=O)C1CCCN1C(=O)OCc1ccccc1 (stereo not drawn) (Cbz-Pro-[Hyp]-Gly-NH2; configuration not given here) ?
Given back: > 100 µM (inactive)

Asked: I have this molecule here, O=C1NC(=O)C2C3C=CC(C12)C1C2C(=O)NC(=O)C2C31 (configuration not stated) , and I need its recorded GI50.
Given back: 240 µM (inactive)

Asked: # lookup: GI50 of C=C1C(=O)O[C@H]2/C=C(/C)C3=CC(=O)[C@@](C)(C[C@@H](OC(=O)/C(C)=C\C)C12)O3 (some centres not stated)
Given back: 1.85 µM (inactive)

Asked: Value lookup for GI50; key = "O=c1cc(-c2ccccc2)c2cc3c(=O)ccoc3cc2o1"
Given back: > 100 µM (inactive)

---

Tested on: ACHN
Assay: NCI tumour cell line growth inhibition, 48 h
The source made the active and inactive calls. Rule as the data show it: active = GI50 up to about 1.1 µM and inactive = higher.
readout-label: GI50

Solved cases below.
compound	readout-value
C=CCn1c2c(c3ccccc3c1=O)C(=O)c1ccccc1-2	51.9 µM (inactive)
Cn1ccnc1Sc1ccc(/C=N/c2ccc3nc(SCC(=O)NC4CCCCC4)sc3c2)cc1[N+](=O)[O-]	16.6 µM (inactive)
Cc1c(O)c(OC2OC(CO)C(O)C(O)C2O)cc2c1CC[C@@H]1C2(C)C(=O)C[C@]2(C)[C@@H]([C@@](C)(O)C(=O)CCC(C)(C)O)[C@H](O)C[C@@]12C (some centres undefined)	> 100 µM (inactive)
CCOC(=O)C(NC(=O)C(CCCCNP(=O)(OCC)OCC)NC(=O)C(C)NC(C)=O)C(C)C (centres undefined)	> 100 µM (inactive)
CC[C@H](C)c1occ2c(O)c(C(=O)O)c(=O)cc-2c1C	26.7 µM (inactive)

Turning to the following compound.
Asked: Requested field: GI50. Item: "N/N=C(/C=C1\C(=O)Nc2ccccc21)c1ccccc1"
Given back: 45.1 µM (inactive)
